- target_desc: Helicobacter pylori urease (Helicobacter pylori)
- Construct: gene ureB; native urease from supernatant of sonicated H. pylori ATCC 43504; with urease subunit alpha (UreA)
- Sequence (P14916 whole entry): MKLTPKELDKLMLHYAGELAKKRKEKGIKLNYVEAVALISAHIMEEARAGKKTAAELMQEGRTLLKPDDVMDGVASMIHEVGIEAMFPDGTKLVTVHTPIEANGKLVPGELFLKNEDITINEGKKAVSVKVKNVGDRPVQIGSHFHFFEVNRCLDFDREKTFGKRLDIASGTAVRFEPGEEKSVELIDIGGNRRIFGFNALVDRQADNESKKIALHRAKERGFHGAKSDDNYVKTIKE
- Sequence (P69996 whole entry): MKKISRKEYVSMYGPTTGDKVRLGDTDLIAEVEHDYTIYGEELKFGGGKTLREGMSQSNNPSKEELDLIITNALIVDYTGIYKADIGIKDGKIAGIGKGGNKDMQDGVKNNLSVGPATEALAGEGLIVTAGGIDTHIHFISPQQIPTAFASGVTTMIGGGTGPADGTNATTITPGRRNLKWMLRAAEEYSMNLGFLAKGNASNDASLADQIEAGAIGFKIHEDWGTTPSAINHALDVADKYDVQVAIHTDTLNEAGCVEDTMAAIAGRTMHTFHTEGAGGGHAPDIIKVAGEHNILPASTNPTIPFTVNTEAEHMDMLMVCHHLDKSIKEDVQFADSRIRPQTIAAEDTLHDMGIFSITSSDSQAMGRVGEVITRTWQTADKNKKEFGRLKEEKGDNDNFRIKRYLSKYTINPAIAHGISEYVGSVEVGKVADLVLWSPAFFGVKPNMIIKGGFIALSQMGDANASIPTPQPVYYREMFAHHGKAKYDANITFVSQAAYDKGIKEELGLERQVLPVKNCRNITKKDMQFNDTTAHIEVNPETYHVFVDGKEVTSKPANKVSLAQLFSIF
- assay_method_text: Berthelot colorimetric urease activity assay with lysate supernatant (partially purified urease)
- Assay type: biochemical

molecule	target_desc	IC50, µM
COc1cc(/C=C/C(=O)C=C(/C=C/c2ccc(OC(C)=O)c(OC)c2)[O][Zn][O]C(=CC(=O)/C=C/c2ccc(OC(C)=O)c(OC)c2)/C=C/c2ccc(OC(C)=O)c(OC)c2)ccc1OC(C)=O [DAC2-Zn]	Helicobacter pylori urease (Helicobacter pylori)	12.4
COc1cc(/C=C/C(=O)C=C(/C=C/c2ccc(OC(C)=O)c(OC)c2)[O][Cu][O]C(=CC(=O)/C=C/c2ccc(OC(C)=O)c(OC)c2)/C=C/c2ccc(OC(C)=O)c(OC)c2)ccc1OC(C)=O [DAC2-Cu]	Helicobacter pylori urease (Helicobacter pylori)	20.4
